assay: Antagonist activity at VDR in human HL60 cells assessed as effect on 1,25-(OH)2-D3-induced cell differentiation by NBT assay
Readout kind: IC50 (nM)

Known results for compounds:
C=C1/C(=C\C=C2/CCC[C@]3(C)[C@@H]([C@H](C)C[C@H]4C[C@](C)(O)C(=O)N4Cc4ccccc4)CC[C@@H]23)C[C@@H](O)C[C@@H]1O; 700
C=C1/C(=C\C=C2/CCC[C@]3(C)[C@@H]([C@H](C)C[C@H]4C[C@](C)(O)C(=O)N4CCCc4ccccc4)CC[C@@H]23)C[C@@H](O)C[C@@H]1O; 2200
C=C1/C(=C\C=C2/CCC[C@]3(C)[C@@H]([C@H](C)C[C@H]4C[C@](C)(O)C(=O)N4CCCCc4ccccc4)CC[C@@H]23)C[C@@H](O)C[C@@H]1O; 390
C=C1/C(=C\C=C2/CCC[C@]3(C)[C@@H]([C@H](C)C[C@H]4C[C@](C)(O)C(=O)N4CCCc4cc(OC)cc(OC)c4)CC[C@@H]23)C[C@@H](O)C[C@@H]1O; 780

a = C=C1/C(=C\C=C2/CCC[C@]3(C)[C@@H]([C@H](C)C[C@H]4C[C@](C)(O)C(=O)N4Cc4cc(OC)cc(OC)c4)CC[C@@H]23)C[C@@H](O)C[C@@H]1O
b = C=C1/C(=C\C=C2/CCC[C@]3(C)[C@@H]([C@H](C)C[C@H]4C[C@](C)(O)C(=O)N4Cc4cc(OCC)cc(OCC)c4)CC[C@@H]23)C[C@@H](O)C[C@@H]1O
c = C=C1/C(=C\C=C2/CCC[C@]3(C)[C@@H]([C@H](C)C[C@H]4C[C@](C)(O)C(=O)N4CCc4ccccc4)CC[C@@H]23)C[C@@H](O)C[C@@H]1O
Order by IC50, ascending. Provide the ranking by listing each label in its place in the requested order. b, c, a
(b: 90 nM, c: 194 nM, a: 300 nM)
